Task for the reader: assign each of the following compounds its reported IC50.
System: HUVEC
test-description: Antiproliferative activity against HUVEC after 48 hrs by MTT assay
Format: functional, cell-based
condition-context: Homo sapiens
Numbers only, in µM.

Some compounds with known IC50 results, for comparison:
Tell me IC50 reported for CN(C)CCOc1ccc(Nc2nc(-c3ccc(O)cc3)nc(Cl)c2-c2ccccc2)cc1
13.8

Tell me IC50 reported for CCN(CC)CCOc1ccc(Nc2cc(Cl)nc(-c3ccc(OC)cc3)n2)cc1
9.24

# evaluate next
Tell me IC50 reported for COc1ccc(-c2nc(Cl)cc(Nc3ccc(OCCN4CCCC4)cc3)n2)cc1
11.3

// provenance: ChEMBL document CHEMBL4229364
